system: L1210 leukemia ip in BDF1 mice, survival T/C; test: NCI In Vivo Anticancer Drug Screen. Data for tumor model L1210 Leukemia (intraperitoneal) in B6D2F1 (BDF1) mice; conditions: endpoint: mean survival time; dose: 100.0 mg/kg/injection; schedule: Q01DX001 (ip); vehicle: carboxymethylcellulose (CMC); higher = longer survival
Toxic doses and inconclusive results are not listed.
Catalogue of T/C readings, one per entry.

COMPOUND	RESULT
[Se]c1ncnc2nc[nH]c12	121 % of control
COc1cc([N+](=O)[O-])c2[nH]c(=O)ccc2c1	97 % of control
CSc1ncnc2c1ncn2C1CCCC1	104 % of control
Cc1cc(Sc2ccccc2)c2c(C)ccc(C(C)C)cc1-2	95 % of control
CC(=O)CSc1ccccn1	102 % of control

`O=CNc1c(Cl)c(Cl)c2c(c1Cl)Cc1cc(Cl)ccc1-2` has a reported T/C of 91 % of control

Cc1ccc(S(=O)(=O)OCC2OCOC2C2OCOC2COS(=O)(=O)c2ccc(C)cc2)cc1 (centres undefined) has a reported T/C of 95 % of control

`CN(Cc1ccccc1)Cc1cc(CO)ccc1O` has a reported T/C of 103 % of control

`Nc1ccc(C(=O)/C=C/c2ccccn2)cc1` has a reported T/C of 103 % of control
